SYSTEM_UNDER_TEST: Kallikrein-7 (Homo sapiens, UniProt P49862)
Sequence (P49862 whole entry): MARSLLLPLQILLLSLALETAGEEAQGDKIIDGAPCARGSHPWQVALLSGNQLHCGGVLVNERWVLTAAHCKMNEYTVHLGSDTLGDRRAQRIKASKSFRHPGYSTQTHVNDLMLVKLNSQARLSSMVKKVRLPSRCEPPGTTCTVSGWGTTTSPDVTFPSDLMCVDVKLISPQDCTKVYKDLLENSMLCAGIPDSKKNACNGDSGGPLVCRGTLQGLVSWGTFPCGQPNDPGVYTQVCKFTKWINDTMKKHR
PROPERTY_NAME: pIC50
Value format note: pIC50 is -log10 of concentration (mol/L); just state the number.

Quick one: pIC50 for `COC(=O)c1ccccc1CNC(=O)N1CCC[C@H]1C(=O)Nc1cccc(OC(F)(F)F)c1` ? 5.05

* * *

SYSTEM_UNDER_TEST: UniProt:Q9Y337
Sequence (Q9Y337 whole entry): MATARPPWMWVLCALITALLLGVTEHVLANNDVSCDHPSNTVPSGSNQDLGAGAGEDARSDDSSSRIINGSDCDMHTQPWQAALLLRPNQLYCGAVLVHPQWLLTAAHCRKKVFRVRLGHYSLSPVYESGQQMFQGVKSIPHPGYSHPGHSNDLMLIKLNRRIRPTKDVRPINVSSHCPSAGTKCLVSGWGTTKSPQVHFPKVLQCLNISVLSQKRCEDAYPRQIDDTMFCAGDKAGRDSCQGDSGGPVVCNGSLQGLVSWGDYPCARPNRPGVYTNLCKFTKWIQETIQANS
pIC50: −log10 of the molar value.
PROPERTY_NAME: pIC50

Quick one: pIC50 for `COC(=O)c1ccccc1CNC(=O)N1CCC[C@H]1C(=O)Nc1cccc(OC(F)(F)F)c1` ? < 4.52
